Quick list: kon per entry.
target: T1, recombinant human 4R0N tau (human, UniProt P10636 2-758); test: SPR Biacore T200; antibody captured by anti-human Fc; tau as analyte; global 1:1 fit
T1 construct: also called recombinant 4R0N human tau; P10636-6
T1 sequence (P10636 other isoform, or with tags, fused parts or gaps limits assumed): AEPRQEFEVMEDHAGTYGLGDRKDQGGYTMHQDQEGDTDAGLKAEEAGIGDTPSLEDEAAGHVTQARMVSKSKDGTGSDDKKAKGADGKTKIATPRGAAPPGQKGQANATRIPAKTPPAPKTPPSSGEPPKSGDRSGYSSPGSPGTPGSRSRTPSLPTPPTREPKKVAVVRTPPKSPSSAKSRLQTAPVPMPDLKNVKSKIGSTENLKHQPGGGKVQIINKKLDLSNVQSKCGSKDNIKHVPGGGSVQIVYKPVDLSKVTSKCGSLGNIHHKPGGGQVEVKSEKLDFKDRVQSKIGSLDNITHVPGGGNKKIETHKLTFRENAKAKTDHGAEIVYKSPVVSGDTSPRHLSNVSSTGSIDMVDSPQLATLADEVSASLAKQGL
READOUT_NAME: kon

INSERT INTO assay_data (binder, result) VALUES
  ('hu9F5VHv9/hu9F5VLv8_DIM13 (antibody, V domains shown) VH: EVQLVQSGAEVKKPGATVKISCKASGFNIKDDYMNWVQQRPGKGLEWIGWIDPENGDTEYASKFQGRATMTADTSTNTAYMELSSLRSEDTAVYYCTTSNGWGQGTLVTVSS VL: DIQMTQSPFSLPVTPGESASISCRSSKSLGHSNGITYLYWYGQKPGQSPQLLIYQGSNRASGVPNRFSSSGSGTDFTLKISRVEAEDVGVYYCAQNLELPLTFGQGTKLEIK', '1.65e+06 M⁻¹ s⁻¹'),
  ('hu9F5VHv9/hu9F5VLv8_DIM3 (antibody, V domains shown) VH: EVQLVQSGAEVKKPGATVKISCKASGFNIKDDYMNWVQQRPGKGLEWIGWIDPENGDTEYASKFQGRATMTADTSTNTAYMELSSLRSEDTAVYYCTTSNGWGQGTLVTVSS VL: DIQMTQSPFSLPVTPGESASISCRSSKSLSHSNGITYLYWYQQKPGQSPQLLIYQGSNTASGVPNRFSSSGSGTDFTLKISRVEAEDVGVYYCAQNIELPLTFGQGTKLEIK', '1.13e+06 M⁻¹ s⁻¹'),
  ('hu9F5VHv9/hu9F5VLv8_DIM6 (antibody, V domains shown) VH: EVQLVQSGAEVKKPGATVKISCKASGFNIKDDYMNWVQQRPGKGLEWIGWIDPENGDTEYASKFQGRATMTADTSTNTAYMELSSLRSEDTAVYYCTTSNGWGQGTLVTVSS VL: DIQMTQSPFSLPVTPGESASISCRSSKSLDHSNGITYLYWYQQKPGQSPQLLIYQGSNRASGVPNRFSSSGSGTDFTLKISRVEAEDVGVYYCAQNIELPLTFGQGTKLEIK', '1.53e+06 M⁻¹ s⁻¹');
